- TEST_SUMMARY: Aqueous solubility (thermodynamic, DPBS)
- Format: physicochemical
- ASSAY_SETUP: Dulbecco's Phosphate-Buffered Saline (DPBS), aqueous buffer, thermodynamic from solid, pH 7.2, n = 3
For each record, write down the corresponding solubility at 72 h.
Numbers only; they are read as µM.

Task item: Could you share which solubility at 72 h value was measured for Cc1cc(NC(=O)c2c(C)[nH]c(=O)c3c(N)n[nH]c23)ccc1F [ZW-1847] ?
Reply: 2.14

Task item: Next: Cc1cc(NC(=O)c2cnc3nc4ccccc4n3c2C)ccc1F [ZW-1841]
Reply: 0.31

====

- TEST_SUMMARY: Cytotoxicity assay (XTT)
- Assay type: cell-based
- ASSAY_SETUP: human, HepG2 cells, XTT; mean ± SD, at least two independent experiments; read-out: CC50 (concentration of a compound causing 50% cytotoxicity)
Please respond with reported CC50 for every item in the list.
All answers are understood in µM, so give the number only.

Task item: Look up CC50 for this compound: CC1Oc2c(cccc2C(=O)Nc2cccc(C(F)F)c2)NC1=O (centres unmarked) [ZW-1888]
Reply: 47

Task item: Lookup COc1cccc(N2CC(C(=O)Nc3cccc(Cl)c3C)CC2=O)c1 (centres unmarked) [ZW-1929]
Reply: 41.3

Task item: Ok, now Cc1cc(C)c(CNC(=O)c2cn(Cc3ccccc3)nc2-c2ccccc2)c(=O)[nH]1 [ZW-1918]
Reply: 47.6

Task item: Moving on to Cc1cccc(NC(=O)c2cccc(CN3C(=O)CNC3=O)c2)c1 [ZW-1946]
Reply: 44.1

Task item: Can you handle O=C1NC2(CCCC2)C(=O)N1Cc1cn(-c2ccccc2)nc1-c1ccccc1 [ZW-1889] next?
Reply: 58.2
